assayed_target: Su(dx) WW3-4 (W505F) mutant tandem pair (Drosophila, UniProt Q9Y0H4 474-554, W505F)
Sequence (Q9Y0H4 474-554 W505F): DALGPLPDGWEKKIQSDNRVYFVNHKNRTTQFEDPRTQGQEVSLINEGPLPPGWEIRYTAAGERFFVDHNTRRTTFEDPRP
assay_name: ITC
measurement_label: pKd
Bear in mind: pKd is minus log10 of a mol/L concentration; give just that figure.

Fill blank: measured pKd of the binder AKQPPSYEDCIK [Notch PY motif peptide N1] is ____.
4.01
